I'd be grateful if you could share measured screen value for these entries.
B1: ATXN2 peptide 911-926 (Ataxin-2), 16-mer library wild type / PABPC1 PABC (PABPC1 PABC domain, residues 544-623) (parent)
chain 1: KSTLNPNAKEFNPRSF
chain 2: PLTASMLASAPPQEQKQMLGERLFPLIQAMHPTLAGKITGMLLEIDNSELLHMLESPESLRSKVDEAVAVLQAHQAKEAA

Variants of: B1
Procedure summary: proteomic peptide phage display deep mutational scan (ProP-PD DMS): M13 P8 16-mer library selected against immobilised GST-tagged bait for four days (rounds), NGS of the eluted pools per day and pseudo-replica
Condition notes: with PABPC1 PABC (PABPC1 PABC domain, residues 544-623); bait immobilised on MaxiSorp plates (10 µg), library pre-cleared on GST, 2 h binding at 4 °C, five washes; one round per day, days 1-4; value from days 2 and 3; scale: average fractional NGS count over selection days 2 and 3
Please give only the number in your answer, with no unit.

Which screen value is listed for chain 1 P13Q ?
0.00338

Which screen value is listed for chain 1 A8I ?
0

Which screen value is listed for chain 1 S2I ?
0.000118

Which screen value is listed for chain 1 T3G ?
0.000528

Which screen value is listed for chain 1 S15G ?
0

Which screen value is listed for chain 1 F16Y ?
0.000515

Which screen value is listed for chain 1 P13M ?
0

Which screen value is listed for chain 1 L4F ?
0

Which screen value is listed for chain 1 A8V ?
0.000222

Which screen value is listed for chain 1 F11V ?
0

Which screen value is listed for chain 1 P13A ?
0.000212

Which screen value is listed for chain 1 N7L ?
0.000441

Which screen value is listed for chain 1 F16T ?
0.000108

Which screen value is listed for chain 1 S2L ?
5.2e-05

Which screen value is listed for chain 1 K9S ?
0.0022

Which screen value is listed for chain 1 N7R ?
5.23e-05

Which screen value is listed for chain 1 P13Y ?
0.000164

Which screen value is listed for chain 1 K9T ?
0.000868

Which screen value is listed for chain 1 K9Q ?
0.001

Which screen value is listed for chain 1 F16N ?
0.000241

Which screen value is listed for chain 1 N7Y ?
5.67e-05

Which screen value is listed for chain 1 R14P ?
0.00013

Which screen value is listed for chain 1 T3Y ?
3.57e-05

Which screen value is listed for chain 1 T3E ?
0.00159

Which screen value is listed for chain 1 S2F ?
0.000554

Which screen value is listed for chain 1 P13E ?
0.000246

Which screen value is listed for chain 1 E10S ?
0

Which screen value is listed for chain 1 S15V ?
0.000546

Which screen value is listed for chain 1 N7T ?
1.57e-05

Which screen value is listed for chain 1 N7D ?
0.000764

Which screen value is listed for chain 1 P13H ?
0

Which screen value is listed for chain 1 S2G ?
0.000237

Which screen value is listed for chain 1 N12E ?
0.000774

Which screen value is listed for chain 1 R14W ?
0.00286

Which screen value is listed for chain 1 P6I ?
0.000875

Which screen value is listed for chain 1 K9Y ?
0.000884

Which screen value is listed for chain 1 N12S ?
0.000112

Which screen value is listed for chain 1 K9M ?
0.0042

Which screen value is listed for chain 1 N12W ?
0.00202

Which screen value is listed for chain 1 R14M ?
9.46e-05

Which screen value is listed for chain 1 F16H ?
0.000158

Which screen value is listed for chain 1 N5Q ?
0

Which screen value is listed for chain 1 N5D ?
0

Which screen value is listed for chain 1 T3F ?
0.000481

Which screen value is listed for chain 1 N7S ?
0.000455

Which screen value is listed for chain 1 S2N ?
0
